experiment: qHTS drug screen for cell cycle checkpoint inhibitors in PARPi-resistant BRCA-mutant ovarian cancer cell lines. (AID 1963452); conditions: PEO1/OlaR viability, CellTiter-Glo luminescence, 96 h; measured here: PEO1 parental Z-AUC; stronger effect = lower value
Threshold check on Z-AUC: strictly below 0.5 is 1; on or above 0.5 is -1.

INSERT INTO results (compound, class_label) VALUES
  ('O=C(O)C(=O)Nc1cccc(-c2nn[nH]n2)c1', -1),
  ('CC1c2ccccc2CN1NC(=O)c1ccc(Cl)c(S(N)(=O)=O)c1 (stereo unspecified)', -1),
  ('CN1CC(=O)N2[C@H](c3ccc4c(c3)OCO4)c3[nH]c4ccccc4c3C[C@@H]2C1=O', -1),
  ('O=[N+]([O-])c1ccc(O)c2ncccc12', 1);

---

system: OV90; assay: Primary qHTS to identify gynecologic anti-cancer compounds using libraries of approved drugs and bioactive compounds (AID 1345084); settings: Gynecologic cancer cell panel viability, ATPlite luminescence, 48 h; series mostly up to 57.5 µM; note: nearly all actives have a fitted effect of over 55% in size; note: potency is the fitted concentration of half-maximal effect
Records with an inconclusive call do not appear. The source made the active and inactive calls. The call rests on the fitted dose curve; in most records, active means well fitted cell-killing curve with a large enough effect; inconclusive means small, poorly fitted or top-dose-only effect, or effect the other way; inactive means flat fitted curve, though single readings scatter.
assay_metric: Potency

INSERT INTO measurements (molecule, target_of_assay, assay_metric, recorded_result) VALUES
  ('CN(C(=O)C(Cl)Cl)c1ccc(OC(=O)c2ccco2)cc1', 'OV90', 'Potency', 'inactive'),
  ('Cc1cccc(N(C)C(=S)Oc2ccc3c(c2)C2CCC3C2)c1 (stereo not given)', 'OV90', 'Potency', '35.5 µM (active)'),
  ('CCC[C@H](N[C@@H](C)C(=O)N1[C@H](C(=O)O)C[C@@H]2CCCC[C@@H]21)C(=O)OCC', 'OV90', 'Potency', 'inactive'),
  ('CN=C(N)NC(=O)Nc1c(C)cccc1C', 'OV90', 'Potency', 'inactive'),
  ('CC(C)=CCC/C(C)=C/CC/C(C)=C/C(=O)OCC(=O)[C@@]1(O)CC[C@H]2[C@@H]3CCC4=CC(=O)C=C[C@]4(C)[C@H]3[C@@H](O)C[C@@]21C', 'OV90', 'Potency', 'inactive');

---

assay: qHTS of pediatric cancer cell lines to identify multiple opportunities for drug repurposing: Primary screen for RD cells (AID 1347104); settings: RD rhabdomyosarcoma viability, CellTiter-Glo luminescence, 48 h; series mostly up to 46 µM; note: nearly all actives have a fitted effect of over 55% in size
Inconclusive results are not listed. Active and inactive are the calls of the source. Calls come from the whole dose curve; as a rule, active = well fitted cell-killing curve with a large enough effect; inconclusive = small, poorly fitted or top-dose-only effect; inactive = flat fitted curve, though single readings scatter.
Classes used: true (1) for active, false (0) for inactive

INSERT INTO results (molecule, class_label) VALUES
  ('O=C(OCC(COC(=O)c1cccnc1)(COC(=O)c1cccnc1)COC(=O)c1cccnc1)c1cccnc1', 'false (0)'),
  ('CCN1CCCC1CN (stereo unspecified)', 'false (0)'),
  ('O=C(Oc1ccccc1)c1ccccc1O', 'false (0)'),
  ('O=C(CS(=O)Cc1ccco1)NC/C=C\COc1cc(CN2CCCCC2)ccn1 (stereo unspecified)', 'false (0)'),
  ('O=C(Nc1ccc(Cl)cc1)Nc1ccc(Cl)c(C(F)(F)F)c1', 'true (1)'),
  ('O=C(O)c1cn(C2CC2)c2cc(Cl)c(F)cc2c1=O', 'false (0)');

---

system: HB3; experiment: qHTS profiling for inhibitors of Plasmodium falciparum proliferation (AID 504749); note: nearly all actives have a fitted effect of over 60% in size; conditions: P. falciparum in erythrocytes, SYBR Green DNA, 72 h; series mostly up to 28.7 µM
Results filed as inconclusive are left out. Active and inactive are the calls of the source. Calls come from the whole dose curve; as a rule, active = well fitted inhibition curve with a large enough effect; inconclusive = small, poorly fitted or top-dose-only effect; inactive = flat fitted curve, though single readings scatter.
Classes used: active, inactive

INSERT INTO results (compound, class_label) VALUES
  ('CC(NCCC(c1ccccc1)c1ccccc1)c1ccccc1 (centres undefined)', 'active'),
  ('O=C(Nc1ccc(Cl)cc1)Nc1ccc(Cl)c(Cl)c1', 'active'),
  ('CCCCCCCCCCCCCC[N+](C)(C)C', 'active'),
  ('O=S(=O)(O)c1ccc2nc(-c3ccccc3)[nH]c2c1', 'inactive');
